# credit: PubChem BioAssay (NCI)

System: MDA-MB-435
Assay: NCI tumour cell line growth inhibition, 48 h
Decision: TGI >= 10 µM yields MET, all other cases yield NOT MET.

Below are worked cases with known answers.
CC1=CCC2CC1C(C(=O)c1c[nH]c3ccccc13)=NC2(C)C (stereo unspecified) :: MET
CCOC(=O)C(NC(=O)c1cccc(Cl)c1)(Nc1ccc(S(=O)(=O)Nc2cc(C)on2)cc1)C(F)(F)F (stereo unspecified) :: MET
CC1=C(C#N)C23C(=O)N(c4ccccc4)C(=O)C2=C(O)C=CC3(O)N1Cc1ccc(Cl)cc1Cl (stereo unspecified) :: NOT MET
CCn1c(SCC(=O)N/N=C2\SCC(=O)N2c2ccc(C)cc2)nc2ccccc2c1=O :: MET
CCCCSC1=N/C(=C\c2ccccc2O)C(=O)N1 :: MET
COc1ccc(C2CC(c3c(O)ccc4ccccc34)=NN2)cc1OC (stereo unspecified) :: MET
Cc1c(NC(=S)Nc2ccc([N+](=O)[O-])cc2)c(=O)n(-c2ccccc2)n1C :: MET
COc1cnc2c(c1)C(=O)c1c-2n(CCCN2CCCC2)c(=O)c2cc([N+](=O)[O-])ccc12 :: NOT MET

Query string: Quick check, TGI >= 10 µM? `CC1(C)N=C(N)N=C(N)N1c1ccc(CNC(=O)Nc2ccc(S(=O)(=O)F)c(Cl)c2)c(Cl)c1`
Result string: MET

Query string: Quick check, TGI >= 10 µM? `CCSC[C@@H]1C[C@](O)(c2ccc(Cl)cc2)[C@@H](c2ccc(Cl)cc2)O1`
Result string: MET

Query string: Quick check, TGI >= 10 µM? `COc1ccc(-c2ncnc3c2ncn3CC#CCCl)cc1`
Result string: MET

###

Test system: DLD-1 colon
Assay: NCI tumour cell line growth inhibition, 48 h
The following compounds are listed with their measured TGI values.

COc1ccc(N2C(=O)C3CC(c4ccc(Br)cc4)c4c([nH]c5ccccc45)C3C2=O)cc1 (configuration not stated) :: 23.4 µM
Nc1nc(=O)n(C2CCC(CO)O2)cc1F (configuration not stated) :: > 100 µM
Cc1ccc(/C=C/C(=O)c2ccc(Cl)c(Cl)c2)cc1 :: > 100 µM
S=P1(Sc2ccccc2)Oc2ccc3ccccc3c2-c2c(ccc3ccccc23)O1 :: > 100 µM
CCOC(=O)C12CCCC1(O)N(NC(=O)OC)C(C)=C2C(=O)OC (configuration not stated) :: > 100 µM

TGI recorded for this compound, `CCCCCCCCCCCCSC(=S)c1c(C)[nH]n(-c2ccccc2)c1=O` , is > 50 µM

TGI recorded for this compound, `CCOC(=O)C1(C(=O)OCC)C(C(C)(C)C)=C(C)c2ccccc21` , is 26.4 µM

###

Test system: A498 renal
Test: NCI tumour cell line growth inhibition, 48 h
ENDPOINT: TGI

Recorded TGI, per entry:
COC(=O)CCc1ccc(CCC(=O)OC)cc1 :: > 100 µM
O=C1Nc2c(Cl)cc(Cl)cc2/C1=N/N=C/c1ccco1 :: 57.7 µM
O=C(O)c1cccc(S(=O)(=O)NCCO)c1 :: > 100 µM
O=S(=O)(N=C1C(Cl)=C(Cl)C(=NS(=O)(=O)c2ccccc2)C(Cl)=C1Cl)c1ccccc1 :: 50.9 µM

TGI recorded for this compound, C=C1C(C(=O)OC)[C@H]1C(=O)OC (some centres not stated) , is > 100 µM

TGI recorded for this compound, CC1OC(OC2C(O)COC(OC3C(C)OC(OC4C(OC(=O)[C@]56CCC(C)(C)C[C@@H]5C5=CCC7[C@@]8(C)C[C@H](O)[C@H](OC9OC(CO)C(O)C(O)C9O)[C@@](C)(CO)[C@@H]8CC[C@@]7(C)[C@]5(C)CC6)OCC(O)C4O)C(O)C3O)C2O)C(O)C(O)C1O (some centres not stated) , is 36 µM

TGI recorded for this compound, `Cc1ncn(-c2ccccc2O)c1C` , is > 100 µM

TGI recorded for this compound, O=C(CC1(O)C(=O)Nc2c(Cl)cc(Cl)cc21)c1ccccc1 (configuration not stated) , is > 100 µM
